The origin of these recorded values is patent US8859584B2.

Biological target: human TRPV1 (Homo sapiens)
Construct: expressed in transfected cells
Sequence (Q8NER1 whole entry): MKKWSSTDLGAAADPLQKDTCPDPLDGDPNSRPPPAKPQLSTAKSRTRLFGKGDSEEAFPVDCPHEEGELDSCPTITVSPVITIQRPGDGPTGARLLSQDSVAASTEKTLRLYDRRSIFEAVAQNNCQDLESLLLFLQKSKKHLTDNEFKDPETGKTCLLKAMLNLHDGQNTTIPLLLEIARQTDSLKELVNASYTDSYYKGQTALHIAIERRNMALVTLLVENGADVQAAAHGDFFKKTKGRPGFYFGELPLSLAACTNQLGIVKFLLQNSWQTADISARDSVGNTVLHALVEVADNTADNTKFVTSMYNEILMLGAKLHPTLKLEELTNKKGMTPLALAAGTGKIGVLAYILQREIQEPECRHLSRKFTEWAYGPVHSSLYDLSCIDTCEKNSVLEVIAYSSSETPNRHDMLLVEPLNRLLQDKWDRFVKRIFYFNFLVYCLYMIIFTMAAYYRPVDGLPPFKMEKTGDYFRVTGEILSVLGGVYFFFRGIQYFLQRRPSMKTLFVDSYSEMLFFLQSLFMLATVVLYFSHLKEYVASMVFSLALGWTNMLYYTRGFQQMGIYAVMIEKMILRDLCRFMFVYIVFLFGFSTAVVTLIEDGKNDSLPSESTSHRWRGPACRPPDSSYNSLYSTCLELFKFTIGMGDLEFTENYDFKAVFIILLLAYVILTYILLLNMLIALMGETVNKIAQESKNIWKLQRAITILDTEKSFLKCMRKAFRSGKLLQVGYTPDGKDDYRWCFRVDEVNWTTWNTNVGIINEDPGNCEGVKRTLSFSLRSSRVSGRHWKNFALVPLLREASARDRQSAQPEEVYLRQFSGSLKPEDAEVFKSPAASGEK
Test: Acid Activation Assay (pH 5.0, FLIPR intracellular Ca2+, recombinant HEK293 cells)
Type: cell-based
Settings: percentage of maximal pH 5.0-induced response remaining; HEK293 hTRPV1; max concentration 37.5 μM
Procedure: (ii) Acid Activation Assay Dulbecco's modified Eagle's medium (DMEM) with 4.5 mg/mL D-glucose, fetal bovine serum, L-glutamine, and 2-morpholinoethanesulfonic acid (MES) were purchased from Sigma-Aldrich Co. (St. Louis, Mo.). […] The functional activity of compounds at the TRPV1 receptor was determined by measurement of intracellular Ca^2+ levels ([Ca^2+]i) using the Fluorescence Imaging Plate Reader (FLIPR)TETRA®. […]
Entries and their measured human TRPV1 H+ (max % remain) follow.

# compound, human TRPV1 H+ (max % remain) (%)
measured = [
    ("CC1(C)C[C@@H](NC(=O)Nc2cccc3c2C[C@H](O)C3)c2ccc(C(F)(F)F)nc2O1 [Example 105]", 39),
    ("O=C(Nc1ccc(F)c2c1C[C@H](O)C2)N[C@@H]1CC(CF)(CF)Oc2c(F)cccc21 [Example 152]", 3),
    ("CC1(C)C[C@@H](NC(=O)Nc2cccc3c2C[C@@H](O)C3)c2ccc(OC(F)(F)F)cc2O1 [Example 72]", 0),
    ("O=C(Nc1cccc2c1C[C@H](O)C2)N[C@@H]1CCOc2cc(F)ccc21 [Example 65]", 73),
]
